Method summary: Acute Toxicity: LD50 in rats of the SD series, 14 days observation
Assay type: in vivo
Conditions used: rat, in vivo, oral, male, read-out: LD50, Oral Administration, male
Below: a set of entries, each annotated with reported LD50 at 336 h.

Here's what some known entries look like.
Cc1ccc(C2CC(=O)C(C(=O)CCc3ccc4c(c3)OCO4)C(=O)C2)cc1 (stereo not drawn) [drawing 34] :: > 4000 mg/kg
O=C(CCc1ccc2c(c1)OCO2)C1C(=O)CC(c2ccccc2)CC1=O (stereo not drawn) [drawing 33] :: > 4000 mg/kg

Record O=C(Cc1ccccc1)C1C(=O)CC(c2ccccc2)CC1=O (stereo not drawn) [drawing 35] , field LD50 at 336 h: > 4000 mg/kg
